Test system: Toxoplasma gondii RH (in HFF)
Test: parasite growth relative to the screen mean (all compounds = 100%); higher = less inhibition of parasite growth
Conditions: 5 µM; 72 h; oxygen 21 %
Where a name gives a salt, the structure may show the parent alone.
MEASURED PROPERTY: parasite growth (%)
Entry rule: numbers only, all in %.

Value lookup for parasite growth; key = CN1C(=O)C(Cc2c[nH]c3ccccc23)NC1=S (stereo not given) 186

Value lookup for parasite growth; key = CN(CCOc1ccc(-c2ccc3c(c2)OCO3)cc1C(C)(C)C)CC(=O)O 110

Value lookup for parasite growth; key = O=C(O)c1cc(O)c2ccc(Cl)cc2n1 119

Value lookup for parasite growth; key = Oc1cc2c(c(Cl)c1O)CCNCC2c1ccccc1 (stereo not given) 103

Value lookup for parasite growth; key = COc1ccc(CN(CCN(C)C)c2ccccn2)cc1 [Mepyramine maleate] 115

====

Test system: Toxoplasma gondii RH (in HFF)
Experiment: parasite growth relative to the screen mean (all compounds = 100%); higher = less inhibition of parasite growth
Settings: 5 µM; 72 h; oxygen 21 %
MEASURED PROPERTY: parasite growth (%)
Entry rule: numbers only, all in %.

Value lookup for parasite growth; key = CC(C)NC[C@H](O)COc1ccc(CC(N)=O)cc1 [S-(-)-Atenolol] 149

Value lookup for parasite growth; key = O=c1cc(-c2ccccc2)oc2cc(O)c(O)c(O)c12 173

Value lookup for parasite growth; key = O=C(/C=C/c1c(C(=O)O)[nH]c2cc(Cl)cc(Cl)c12)Nc1ccccc1 114

Value lookup for parasite growth; key = Clc1ccc2c(c1)N=C(N1CCNCC1)c1ccccc1N2 59.7

Value lookup for parasite growth; key = N#C/C(=C(/N)Sc1ccc(N)cc1)c1ccccc1C(F)(F)F 113

====

Tested on: Toxoplasma gondii RH (in HFF)
Test: parasite growth relative to the screen mean (all compounds = 100%); higher = less inhibition of parasite growth
Conditions: 5 µM; 72 h; oxygen 21 %
Where a name gives a salt, the structure may show the parent alone.
Give parasite growth for every item shown.
Entry rule: numbers only, all in %.

Value lookup for parasite growth; key = CC(C)n1nnc2cc(C(=O)O)ccc21 81.9

Value lookup for parasite growth; key = CN[C@H]1CC[C@@H](c2ccc(Cl)c(Cl)c2)c2ccccc21 [Sertraline hydrochloride] 29.3

Value lookup for parasite growth; key = COC(=O)[C@H](NC(=O)c1cc(-c2ccccc2)nc2ccccc12)c1ccccc1 113

Value lookup for parasite growth; key = O=C1CC2(CCCC2)CC(=O)N1CCCCN1CCN(c2ncccn2)CC1 [Buspirone hydrochloride] 171

Value lookup for parasite growth; key = COc1cccc(CCc2ccccc2OCC[C@@H]2C[C@@H](O)CN2C)c1 53.4

Value lookup for parasite growth; key = OC(CN1CCC(Cc2ccc(F)cc2)CC1)c1ccc(Cl)cc1 (stereo not given) 93.6

Value lookup for parasite growth; key = c1ccc(COCCCc2c[nH]cn2)cc1 [Proxyfan Oxalate] 112

Value lookup for parasite growth; key = O=C(Nc1ccccc1)N[C@@H]1C[C@@H](C(=O)O)Nc2cc(Cl)cc(Cl)c21 104

Value lookup for parasite growth; key = CNc1cc2c(Nc3cccc(Br)c3)ncnc2cn1 128

====

Tested on: Toxoplasma gondii RH (in HFF)
Experiment: parasite growth relative to the screen mean (all compounds = 100%); higher = less inhibition of parasite growth
Conditions: 5 µM; 72 h; oxygen 21 %
Structures can show the parent of a compound that is named as a salt.
Give parasite growth for every item shown.
Entry rule: numbers only, all in %.

Value lookup for parasite growth; key = COc1ccc(Cl)cc1C(=O)NCCc1ccc(S(=O)(=O)NC(=O)NC2CCCCC2)cc1 [Glibenclamide] 96.4

Value lookup for parasite growth; key = CCOc1cc(C(=O)Nc2ccc(Cl)c(-c3nc4ccccc4[nH]3)c2)cc(OCC)c1OCC 23.3

Value lookup for parasite growth; key = CCCCC#Cc1nc(NC)c2ncn([C@@H]3O[C@H](CO)[C@@H](O)[C@H]3O)c2n1 143

Value lookup for parasite growth; key = COc1cc(CNC(=O)CCCC/C=C/C(C)C)ccc1O [(E)-Capsaicin] 135

Value lookup for parasite growth; key = Cc1cc(C(C)(C)C)c(O)c(C)c1CC1=NCCN1 [Oxymetazoline hydrochloride] 196

Value lookup for parasite growth; key = CN(C)CCCSC(=N)N [Dimaprit dihydrochloride] 73.4

Value lookup for parasite growth; key = O=C(NCC1CCCCN1)c1cc(OCC(F)(F)F)ccc1OCC(F)(F)F (centres undefined) [Flecainide acetate] 130

Value lookup for parasite growth; key = CS(=O)(=O)c1ccc(-c2cc(Br)sc2-c2ccc(F)cc2)cc1 47.5

Value lookup for parasite growth; key = Cc1nc2c(c(=O)[nH]1)CSCC2 122

Value lookup for parasite growth; key = CC(NC(=O)c1ccccc1/N=C/c1c(O)ccc2ccccc12)c1ccccc1 (centres undefined) 97.5

Value lookup for parasite growth; key = NS(=O)(=O)c1cc2c(cc1Cl)NC(C1CC3C=CC1C3)NS2(=O)=O (centres undefined) [Cyclothiazide] 118

Value lookup for parasite growth; key = Cc1cccc(CCN2CCC(C(=O)c3ccc(NS(C)(=O)=O)cc3)CC2)n1 [E-4031 dihydrochloride] 150

Value lookup for parasite growth; key = N=C(N)N/N=C/c1c(Cl)cccc1Cl [Guanabenz acetate] 99.5

Value lookup for parasite growth; key = N=C(N)NC(=N)Nc1ccccc1 [1-Phenylbiguanide hydrochloride] 91.9

Value lookup for parasite growth; key = COc1ccc(Cl)cc1NC(=O)Nc1cc(C)nc2ccccc12 52.7

Value lookup for parasite growth; key = CCCCCCCCCCCCCCCC(=O)C(F)(F)F 108

Value lookup for parasite growth; key = CCCC1O[C@@H]2C[C@H]3[C@@H]4CCC5=CC(=O)C=C[C@]5(C)[C@H]4[C@@H](O)C[C@]3(C)[C@]2(C(=O)CO)O1 (some centres undefined) [Budesonide] 138

Value lookup for parasite growth; key = COc1ccccc1N1CCN(CCCNc2cc(=O)n(C)c(=O)n2C)CC1 [Urapidil hydrochloride] 105

Value lookup for parasite growth; key = CCS(=O)(=O)N1CCC[C@@H]2CN3CCc4cc(OC)ccc4[C@@H]3C[C@@H]21 125
